Parameter IC50: see the listing below.
molecular target: Type-1 angiotensin II receptor (Homo sapiens)
Sequence (P30556 whole entry): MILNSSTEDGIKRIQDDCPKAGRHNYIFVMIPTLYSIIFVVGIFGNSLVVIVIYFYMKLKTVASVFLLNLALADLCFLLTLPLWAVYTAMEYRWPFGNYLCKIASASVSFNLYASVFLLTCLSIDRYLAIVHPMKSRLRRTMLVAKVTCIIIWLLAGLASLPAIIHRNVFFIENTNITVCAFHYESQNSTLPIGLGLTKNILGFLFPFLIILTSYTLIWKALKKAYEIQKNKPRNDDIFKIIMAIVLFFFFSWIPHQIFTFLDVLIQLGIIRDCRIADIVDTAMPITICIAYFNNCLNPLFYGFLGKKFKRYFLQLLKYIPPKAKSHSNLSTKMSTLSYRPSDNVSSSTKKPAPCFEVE
observed.property: IC50 (nM)

item_smiles=CCCc1nc2c(C)cc(C(=O)NCCc3ccccc3F)cc2n1Cc1ccc(-c2ccccc2-c2nnn[nH]2)cc1 observed_property=IC50 unit_of_measurement=nM endpoint_value=37.6
item_smiles=CCCc1nc2c(C)cc(C(=O)NCc3ccccc3OC)cc2n1Cc1ccc(-c2ccccc2-c2nnn[nH]2)cc1 observed_property=IC50 unit_of_measurement=nM endpoint_value=19.7
item_smiles=CCCc1nc2c(C)cc(C(=O)NCCc3cccc(OC)c3)cc2n1Cc1ccc(-c2ccccc2-c2nnn[nH]2)cc1 observed_property=IC50 unit_of_measurement=nM endpoint_value=2.6
item_smiles=CCCc1nc2c(C)cc(C(=O)NCc3ccc(OC)c(OC)c3)cc2n1Cc1ccc(-c2ccccc2-c2nnn[nH]2)cc1 observed_property=IC50 unit_of_measurement=nM endpoint_value=96.8

---

test: Toxicity against Photobacterium phosphoreum expressing T3 mutation after 15 mins by Microtox assay; type: organism-based
observed.property: LC50 at 0.25 h

item_smiles=CCCc1nc2c(C)cc(C(=O)NCCc3cc(OC)ccc3OC)cc2n1Cc1ccc(-c2ccccc2-c2nnn[nH]2)cc1 endpoint_value="> 100 µg/mL"
item_smiles=CCCc1nc2c(C)cc(C(=O)NCc3ccccc3)cc2n1Cc1ccc(-c2ccccc2-c2nnn[nH]2)cc1 endpoint_value="64 µg/mL"
item_smiles=CCCc1nc2c(C)cc(C(=O)NCc3cccc(OC)c3)cc2n1Cc1ccc(-c2ccccc2-c2nnn[nH]2)cc1 endpoint_value="> 100 µg/mL"
item_smiles=CCCc1nc2c(C)cc(C(=O)NCc3ccccc3OC)cc2n1Cc1ccc(-c2ccccc2-c2nnn[nH]2)cc1 endpoint_value="66 µg/mL"
item_smiles=CCCc1nc2c(C)cc(C(=O)NCCc3ccccc3)cc2n1Cc1ccc(-c2ccccc2-c2nnn[nH]2)cc1 endpoint_value="> 100 µg/mL"
item_smiles=CCCc1nc2c(C)cc(-c3nc4ccccc4n3C)cc2n1Cc1ccc(-c2ccccc2C(=O)O)cc1 endpoint_value="100 µg/mL"
item_smiles=CCCc1nc2c(C)cc(C(=O)NCCc3ccccc3F)cc2n1Cc1ccc(-c2ccccc2-c2nnn[nH]2)cc1 endpoint_value="17 µg/mL"

---

assay: Toxicity against Photobacterium phosphoreum expressing T3 mutation after 15 mins by Microtox assay; type: organism-based
Parameter LC50 at 0.25 h: see the listing below.
observed.property: LC50 at 0.25 h

compound=CCCc1nc2c(C)cc(C(=O)NCCc3cccc(OC)c3)cc2n1Cc1ccc(-c2ccccc2-c2nnn[nH]2)cc1 endpoint_value="> 100 µg/mL"
compound="CCCc1nc2c(C)cc(C(=O)NCC(C)c3ccccc3)cc2n1Cc1ccc(-c2ccccc2-c2nnn[nH]2)cc1 (stereo not drawn)" endpoint_value="> 100 µg/mL"
compound=CCCCc1nc(Cl)c(CO)n1Cc1ccc(-c2ccccc2-c2nn[nH]n2)cc1 endpoint_value="331 µg/mL"
compound=CCCc1nc2c(C)cc(C(=O)NCCc3ccc(OC)c(OC)c3)cc2n1Cc1ccc(-c2ccccc2-c2nnn[nH]2)cc1 endpoint_value="> 100 µg/mL"
compound=CCCc1nc2c(C)cc(C(=O)NCCc3ccc(F)cc3)cc2n1Cc1ccc(-c2ccccc2-c2nnn[nH]2)cc1 endpoint_value="60 µg/mL"
compound=CCCc1nc2c(C)cc(C(=O)NCc3ccc(OC)c(OC)c3)cc2n1Cc1ccc(-c2ccccc2-c2nnn[nH]2)cc1 endpoint_value="> 100 µg/mL"
compound=CCCc1nc2c(C)cc(C(=O)NCc3ccc(OC)cc3)cc2n1Cc1ccc(-c2ccccc2-c2nnn[nH]2)cc1 endpoint_value="> 100 µg/mL"
compound=CCCc1nc2c(C)cc(C(=O)NCCc3ccc(OC)cc3)cc2n1Cc1ccc(-c2ccccc2-c2nnn[nH]2)cc1 endpoint_value="> 100 µg/mL"
